Taken from the supplement of paper PMC6555819.

system: PXR:RXRa (NR concentration 270 nM, RXRa partner concentration 90 nM); assay: PBM binding z-score (relative to random genomic background probes); higher = stronger binding; sequences stand for … in GC…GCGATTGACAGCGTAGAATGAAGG
property measured: PBM binding z-score
The answer should be written as a number, with no unit following it.

Known results for sequences:
{"residue sequence": "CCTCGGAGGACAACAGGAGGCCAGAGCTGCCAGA", "PBM binding z-score": -0.549}
{"residue sequence": "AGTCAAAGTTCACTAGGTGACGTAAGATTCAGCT", "PBM binding z-score": 4.22}
{"residue sequence": "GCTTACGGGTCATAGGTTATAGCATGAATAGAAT", "PBM binding z-score": 3.94}
{"residue sequence": "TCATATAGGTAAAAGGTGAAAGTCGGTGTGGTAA", "PBM binding z-score": 2.17}
{"residue sequence": "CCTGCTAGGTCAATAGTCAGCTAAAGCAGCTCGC", "PBM binding z-score": 0.324}

// moving on: another record for PBM binding z-score
Query block: Give me measured PBM binding z-score, please, for this sequence: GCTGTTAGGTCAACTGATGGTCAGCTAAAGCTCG
Result block: 2.32

---

Each record here notes measured PBM binding z-score.
system: PXR:RXRa (NR concentration 270 nM, RXRa partner concentration 90 nM); assay: PBM binding z-score (relative to random genomic background probes); higher = stronger binding; sequences stand for … in GC…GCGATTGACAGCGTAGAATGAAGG
Lab note: record the figure alone, no unit after it.

Example results:
{"residue sequence": "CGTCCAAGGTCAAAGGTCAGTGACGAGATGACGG", "tested on": "PXR:RXRa (NR concentration 270 nM, RXRa partner concentration 90 nM)", "observed value": 7.17}
{"residue sequence": "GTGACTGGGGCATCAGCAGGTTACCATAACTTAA", "tested on": "PXR:RXRa (NR concentration 270 nM, RXRa partner concentration 90 nM)", "observed value": 0.254}
{"residue sequence": "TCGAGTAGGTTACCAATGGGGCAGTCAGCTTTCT", "tested on": "PXR:RXRa (NR concentration 270 nM, RXRa partner concentration 90 nM)", "observed value": -0.103}
{"residue sequence": "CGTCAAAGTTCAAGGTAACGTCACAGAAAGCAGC", "tested on": "PXR:RXRa (NR concentration 270 nM, RXRa partner concentration 90 nM)", "observed value": 4.33}

Moving on to the next sequence.
Query block: Give reported PBM binding z-score for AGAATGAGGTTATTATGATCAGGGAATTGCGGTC (PXR:RXRa (NR concentration 270 nM, RXRa partner concentration 90 nM))
Result block: 1.11

---

system: PPARg DBDmut IVT, anti-PPARg (DBD mutation: PPARg1 K132A/R137A, NR concentration 270 nM); assay: PBM binding z-score (relative to random genomic background probes); higher = stronger binding; sequences stand for … in GC…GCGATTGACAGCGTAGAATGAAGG
Each entry falls in a class defined on PBM binding z-score; the bands are low range (below -0.08), mid range (-0.08 to below 0.9), high range (0.9 or more)

Field: example entries. Status: answers known.
{"residue sequence": "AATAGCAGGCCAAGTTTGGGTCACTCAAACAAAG", "label": "low range"}
{"residue sequence": "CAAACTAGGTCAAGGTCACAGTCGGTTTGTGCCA", "label": "high range"}
{"residue sequence": "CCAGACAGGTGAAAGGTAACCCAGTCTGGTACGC", "label": "low range"}

Query block: Which class holds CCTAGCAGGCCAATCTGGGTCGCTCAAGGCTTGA ?
Result block: low range

Query block: Consider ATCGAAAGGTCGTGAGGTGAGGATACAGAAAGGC . To which PBM binding z-score class does it belong?
Result block: mid range

Query block: Sort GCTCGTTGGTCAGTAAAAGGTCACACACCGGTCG into one of the categories.
Result block: mid range

Query block: For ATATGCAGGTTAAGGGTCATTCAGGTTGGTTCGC , which PBM binding z-score bin applies?
Result block: high range

Query block: State the band of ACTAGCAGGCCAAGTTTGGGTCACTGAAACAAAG
Result block: low range

Query block: Tag the class for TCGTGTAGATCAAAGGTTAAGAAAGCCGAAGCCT
Result block: low range

Query block: Kindly state the category for this sequence: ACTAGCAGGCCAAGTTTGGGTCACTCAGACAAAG
Result block: low range

Query block: Given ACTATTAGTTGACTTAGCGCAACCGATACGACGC , name the class its PBM binding z-score places it in.
Result block: high range

Query block: Assign a category based on measured PBM binding z-score for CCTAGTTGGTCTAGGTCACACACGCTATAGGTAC and give only the class name.
Result block: mid range
